Entry source: patent US20180244785A1

- ASSAYED_SYSTEM: T1, 6His-Fc-FGFR4 (human, UniProt P22455 144-369)
- T1 construct: not shown: 6His tag and Fc as named in '6His-Fc-FGFR'
- T1 sequence: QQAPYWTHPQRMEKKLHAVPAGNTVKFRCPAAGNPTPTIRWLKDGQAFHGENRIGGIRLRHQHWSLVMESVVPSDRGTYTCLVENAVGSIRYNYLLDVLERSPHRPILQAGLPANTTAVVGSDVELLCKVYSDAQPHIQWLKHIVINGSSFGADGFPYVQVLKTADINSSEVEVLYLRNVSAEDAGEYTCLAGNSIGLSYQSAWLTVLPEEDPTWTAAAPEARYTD
- EXPERIMENT_SUMMARY: competition ELISA, blocks 6His-Fc-FGFR4 binding to coated FGF2
Param label: returns satisfied when IC50 < 10 nM, returns not satisfied otherwise, including exact equality.

Ab67 (antibody, human IgG2, kappa, V domains shown, format in the assays not spelled out) VH: EVQLLESGGGVVQPGRSLRLSCAASGFTFSSYAMHWVRQAPGKGLEWVAVISYDGSNKYYADSVKGRFTISRDNSKNTLSLQMNSLRVEDTAIYYCVRGAGRGFPYGPDGFDIWGQGTMVTVSS VL: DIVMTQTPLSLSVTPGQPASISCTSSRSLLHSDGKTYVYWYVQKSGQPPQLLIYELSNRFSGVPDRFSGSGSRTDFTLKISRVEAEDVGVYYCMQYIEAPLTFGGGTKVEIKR : not satisfied
Ab88 (antibody, human IgG2, kappa, V domains shown, format in the assays not spelled out) VH: EVQLLESGGGVVQPGRSLRLSCAASGFTFSSYAMHWVRQAPGKGLEWVAVISYDGSNKYYADSVKGRFTISRDNSKNTLSLQMNSLRVEDTAIYYCVRGAGRGLTYGPDGFDIWGQGTMVTVSS VL: DIVMTQTPLSLSVTPGQPASISCKSSRSLLHSDGKTYLYWYVQKSGQPPQLLIYELSNRFSGVPDRFSGSGSRTDFTLKISRVEAEDVGVYYCMQYIEAPLTFGGGTKVEIKR : not satisfied
Ab63 (antibody, human IgG2, kappa, V domains shown, format in the assays not spelled out) VH: EVQLLESGGGVVQPGRSLRLSCAASGFTFSSYAMHWVRQAPGKGLEWVAVISYDGSNKYYADSVKGRFTISRDNSKNTLSLQMNSLRVEDTAIYYCVRGAGRGYPHGPDGFDIWGQGTMVTVSS VL: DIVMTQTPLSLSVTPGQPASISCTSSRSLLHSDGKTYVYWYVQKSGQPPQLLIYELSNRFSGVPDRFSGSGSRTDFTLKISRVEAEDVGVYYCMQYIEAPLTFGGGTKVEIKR : not satisfied
Ab29 (antibody, human IgG2, kappa, V domains shown, format in the assays not spelled out) VH: EVQLLESGGGVVQPGRSLRLSCAASGFTFSSYAMHWVRQAPGKGLEWVAVISYDGSNKYYADSVKGRFTISRDNSKNTLSLQMNSLRVEDTAIYYCVRGAGLGWPYGPDGFDIWGQGTMVTVSS VL: DIVMTQTPLSLSVTPGQPASISCTSSRSLLHSDGKTYVYWYVQKSGQPPQLLIYELSNRFSGVPDRFSGSGSRTDFTLKISRVEAEDVGVYYCMQYVEAPLTFGGGTKVEIKR : satisfied
Ab57 (antibody, human IgG2, kappa, V domains shown, format in the assays not spelled out) VH: EVQLLESGGGVVQPGRSLRLSCAASGFTFSSYAMHWVRQAPGKGLEWVAVISYDGSNKYYADSVKGRFTISRDNSKNTLSLQMNSLRVEDTAIYYCVRGAGLGFPYGPDGFDIWGQGTMVTVSS VL: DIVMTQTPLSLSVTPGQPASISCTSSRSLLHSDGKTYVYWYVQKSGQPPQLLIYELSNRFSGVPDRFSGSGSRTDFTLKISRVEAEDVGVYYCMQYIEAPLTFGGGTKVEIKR : satisfied

Now take the following binder into account.
Quick check: does Ab76 (antibody, human IgG2, kappa, V domains shown, format in the assays not spelled out) VH: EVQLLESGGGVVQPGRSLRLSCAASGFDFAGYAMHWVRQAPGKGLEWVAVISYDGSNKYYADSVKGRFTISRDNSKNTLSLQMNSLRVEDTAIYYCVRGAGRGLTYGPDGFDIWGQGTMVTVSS VL: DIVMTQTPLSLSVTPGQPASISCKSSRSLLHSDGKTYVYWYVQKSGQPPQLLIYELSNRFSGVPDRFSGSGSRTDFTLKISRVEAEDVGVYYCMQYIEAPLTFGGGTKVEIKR have IC50 under 10 nM?
not satisfied
